target: CaVβ2a core (Rattus norvegicus); assay: Isothermal titration calorimetry, AID peptide:CaVβ2a binding; conditions: ITC, 15 °C, 150 mM KCl, 10 mM potassium phosphate, pH 7.3; 20 μM peptide into 2 μM CaVβ2a core; single site model; n = 3 (Cav1.2 AID), 2 (AID-CEN), 3 (AID-CAP)
No end group written: not given here.
value_kind: pKd
A value of pKd is the negative decimal logarithm of a concentration given in moles per litre.

IN: Give pKd (CaVβ2a core (Rattus norvegicus)) of the following substance: CQQLEEDLKGYLDWITQAE-NH2 [AID]
OUT: 8.18
